Entry source: patent US20260242735A1

# target.or.test.system: human CD33 I47T (human, UniProt P20138 18-364)
# Sequence (P20138 18-364 I47T limits assumed): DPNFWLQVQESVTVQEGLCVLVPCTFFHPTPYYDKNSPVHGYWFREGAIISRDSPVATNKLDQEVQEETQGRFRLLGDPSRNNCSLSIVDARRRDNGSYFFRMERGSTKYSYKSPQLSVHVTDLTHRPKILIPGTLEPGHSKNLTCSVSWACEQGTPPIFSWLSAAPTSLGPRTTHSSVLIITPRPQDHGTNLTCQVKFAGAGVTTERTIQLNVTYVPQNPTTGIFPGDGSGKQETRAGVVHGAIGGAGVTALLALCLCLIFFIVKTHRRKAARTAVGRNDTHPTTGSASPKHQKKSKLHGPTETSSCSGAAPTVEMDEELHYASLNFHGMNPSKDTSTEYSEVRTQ
# assay.summary: flow cytometry, mutant on cells, IgG
Quick list: Mean % WT Binding per entry.

- binder: "Refmab #1 (antibody, human IgG1, V domains shown, Tested in IgG format; human IgG1 (Absolute Antibody hP67.6, Cat. No. Ab00283-10.0); also called hP67.6) VH: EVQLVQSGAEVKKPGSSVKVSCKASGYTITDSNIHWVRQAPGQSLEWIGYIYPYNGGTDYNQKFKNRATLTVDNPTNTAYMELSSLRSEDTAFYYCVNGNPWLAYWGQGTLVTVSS VL: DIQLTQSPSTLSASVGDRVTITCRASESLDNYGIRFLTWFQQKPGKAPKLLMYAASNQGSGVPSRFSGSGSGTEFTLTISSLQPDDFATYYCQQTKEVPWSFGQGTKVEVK"
  result.units: "% WT binding"
  Mean % WT Binding: 97.2
- binder: "Refmab #4 (antibody, human IgG1, V domains shown, Tested in IgG format; human IgG1 Fc silent (PG-LALA)) VH: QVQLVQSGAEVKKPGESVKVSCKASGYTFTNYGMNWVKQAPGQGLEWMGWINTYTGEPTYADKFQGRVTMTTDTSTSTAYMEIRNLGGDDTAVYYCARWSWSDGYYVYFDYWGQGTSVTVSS VL: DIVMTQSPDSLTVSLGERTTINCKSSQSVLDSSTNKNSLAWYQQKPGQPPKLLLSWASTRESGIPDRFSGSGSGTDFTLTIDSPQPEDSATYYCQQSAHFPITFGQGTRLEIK"
  result.units: "% WT binding"
  Mean % WT Binding: 82.4
- binder: "Refmab #3 (antibody, human IgG1, V domains shown, Tested in IgG format; human IgG1 Fc silent (PG-LALA)) VH: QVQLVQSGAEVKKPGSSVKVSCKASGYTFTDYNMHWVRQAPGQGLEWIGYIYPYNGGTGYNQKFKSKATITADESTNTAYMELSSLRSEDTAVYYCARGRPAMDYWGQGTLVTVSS VL: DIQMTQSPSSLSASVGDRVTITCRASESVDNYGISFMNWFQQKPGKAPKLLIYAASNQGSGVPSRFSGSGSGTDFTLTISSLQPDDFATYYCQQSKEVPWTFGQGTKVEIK"
  result.units: "% WT binding"
  Mean % WT Binding: 72.4
- binder: "Refmab #2 (antibody, human IgG1, V domains shown, Tested in IgG format; human IgG1 Fc silent (PG-LALA)) VH: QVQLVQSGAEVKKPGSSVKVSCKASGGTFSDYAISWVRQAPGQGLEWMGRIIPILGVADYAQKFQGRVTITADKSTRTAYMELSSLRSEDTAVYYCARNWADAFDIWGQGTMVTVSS VL: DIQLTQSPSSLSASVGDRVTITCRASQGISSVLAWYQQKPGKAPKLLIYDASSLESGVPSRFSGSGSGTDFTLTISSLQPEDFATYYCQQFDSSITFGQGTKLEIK"
  result.units: "% WT binding"
  Mean % WT Binding: 1.8
